Target: Inhibitor of nuclear factor kappa-B kinase subunit beta (Homo sapiens, UniProt O14920)
Sequence (O14920 whole entry): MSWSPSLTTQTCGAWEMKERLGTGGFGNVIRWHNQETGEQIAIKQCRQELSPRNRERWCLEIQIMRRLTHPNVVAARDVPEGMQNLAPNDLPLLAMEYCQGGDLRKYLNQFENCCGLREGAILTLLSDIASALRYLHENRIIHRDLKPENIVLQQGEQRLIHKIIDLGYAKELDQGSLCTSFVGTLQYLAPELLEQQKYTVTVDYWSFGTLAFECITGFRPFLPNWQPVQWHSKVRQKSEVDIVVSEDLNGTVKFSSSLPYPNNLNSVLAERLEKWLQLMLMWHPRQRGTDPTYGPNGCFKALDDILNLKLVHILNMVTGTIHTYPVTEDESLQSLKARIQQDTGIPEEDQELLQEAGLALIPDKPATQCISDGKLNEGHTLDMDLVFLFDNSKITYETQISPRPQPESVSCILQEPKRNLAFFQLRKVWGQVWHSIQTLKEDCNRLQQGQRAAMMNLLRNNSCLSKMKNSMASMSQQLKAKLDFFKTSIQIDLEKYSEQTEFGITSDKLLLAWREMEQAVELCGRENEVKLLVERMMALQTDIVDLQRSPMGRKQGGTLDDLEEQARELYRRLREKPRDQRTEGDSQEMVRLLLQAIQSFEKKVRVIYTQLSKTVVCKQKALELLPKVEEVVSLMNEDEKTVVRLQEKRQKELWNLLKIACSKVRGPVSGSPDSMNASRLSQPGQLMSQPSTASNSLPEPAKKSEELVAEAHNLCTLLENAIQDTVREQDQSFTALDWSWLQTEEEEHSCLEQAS
Test: Inhibition of IKKB kinase
parameter.measured: IC50

compound.structure | observed.measurement
N#C/C(=C1/Nc2ccccc2S1)c1ccnc(NCCc2cccnc2)n1.O=C(O)C(F)(F)F.O=C(O)C(F)(F)F | > 10 µM

* * *

Target: Mitogen-activated protein kinase 10 (Rattus norvegicus)
Assay: Inhibition of rat c-Jun N-terminal kinase 3
pIC50: −log10 of the molar value.

compound.structure | value.comparator | pIC50
CN1CCN(c2nccc(/C(C#N)=C3\Nc4ccccc4S3)n2)CC1 | = | 5.17
N#C/C(=C1/Nc2ccccc2S1)c1ccnc(NCCCn2cccn2)n1 | = | 6.23
CNc1nccc(/C(C#N)=C2\Nc3ccccc3S2)n1 | = | 6.02
CCCN(CCCNc1nccc(/C(C#N)=C2\Nc3ccccc3S2)n1)C(=O)CC | = | 5.87
Cn1cnc(CCNc2nccc(/C(C#N)=C3\Nc4ccccc4S3)n2)c1 | = | 7.19
N#C/C(=C1/Nc2ccccc2S1)c1ccnc(N)n1 | = | 5.12
N#C/C(=C1/Nc2ccccc2S1)c1ccnc(NCCc2ccc(Cl)c(Cl)c2)n1 | < | 5.30
N#C/C(=C1/Nc2ccccc2S1)c1ccnc(NCCc2c[nH]cn2)n1 | = | 7.10
N#C/C(=C1/Nc2ccccc2S1)c1ccnc(N2CCNCC2)n1 | = | 5.18
CCCN(CCC)c1nccc(/C(C#N)=C2\Nc3ccccc3S2)n1 | < | 5.30
N#C/C(=C1/Nc2ccccc2S1)c1ccnc(NCc2cccnc2)n1 | = | 6.47
N#C/C(=C1/Nc2ccccc2S1)c1ccnc(NCCc2ccccc2F)n1 | = | 6.56
N#C/C(=C1/Nc2ccccc2S1)c1ccnc(NCCc2ccc(N)cc2)n1 | = | 7.10
N#C/C(=C1/Nc2ccccc2S1)c1ccnc(NCCc2ccccc2)n1 | < | 5.30
N#C/C(=C1/Nc2ccccc2S1)c1ccnc(NCCn2cncn2)n1 | = | 6.40
N#C/C(=C1/Nc2ccccc2S1)c1ccnc(NCCc2cccc(Cl)c2)n1 | < | 5.30
N#C/C(=C1/Nc2ccccc2S1)c1ccnc(NCCc2ccc(Br)cc2)n1 | < | 5.30
N#C/C(=C1/Nc2ccccc2S1)c1ccnc(NCCCO)n1 | = | 6.18
N#C/C(=C1/Nc2ccccc2S1)c1cc(Br)nc(Cl)n1 | = | 6.46
N#C/C(=C1/Nc2ccccc2S1)c1ccnc(NCCCN)n1 | = | 6.15
N#C/C(=C1/Nc2ccccc2S1)c1ccnc(NCCN)n1 | = | 5.83
N#C/C(=C1/Nc2ccccc2S1)c1ccnc(NCCCN2CCOCC2)n1 | = | 6.39
N#C/C(=C1/Nc2ccccc2S1)c1ccnc(NCc2ccccn2)n1 | = | 6.19

* * *

Target: Dual specificity mitogen-activated protein kinase kinase 1 (Homo sapiens)
Sequence (Q02750 whole entry): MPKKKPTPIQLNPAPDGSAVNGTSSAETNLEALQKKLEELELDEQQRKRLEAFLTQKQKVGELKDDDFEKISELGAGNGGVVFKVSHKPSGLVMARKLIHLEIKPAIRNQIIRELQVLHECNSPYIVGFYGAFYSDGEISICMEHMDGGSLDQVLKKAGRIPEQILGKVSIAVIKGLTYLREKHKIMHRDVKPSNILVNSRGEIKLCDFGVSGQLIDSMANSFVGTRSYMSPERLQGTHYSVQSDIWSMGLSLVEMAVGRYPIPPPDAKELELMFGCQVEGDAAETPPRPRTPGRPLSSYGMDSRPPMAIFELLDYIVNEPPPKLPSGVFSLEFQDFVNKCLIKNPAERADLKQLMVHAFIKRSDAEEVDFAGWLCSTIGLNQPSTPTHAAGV
Experiment: Inhibition of mitogen activated protein kinase kinase 1 (MEK1)
parameter.measured: IC50

compound.structure | observed.measurement
N#C/C(=C1/Nc2ccccc2S1)c1ccnc(NCCc2cccnc2)n1.O=C(O)C(F)(F)F.O=C(O)C(F)(F)F | > 10 µM

* * *

Target: Mitogen-activated protein kinase 9 (Homo sapiens, UniProt P45984)
Sequence (P45984 whole entry): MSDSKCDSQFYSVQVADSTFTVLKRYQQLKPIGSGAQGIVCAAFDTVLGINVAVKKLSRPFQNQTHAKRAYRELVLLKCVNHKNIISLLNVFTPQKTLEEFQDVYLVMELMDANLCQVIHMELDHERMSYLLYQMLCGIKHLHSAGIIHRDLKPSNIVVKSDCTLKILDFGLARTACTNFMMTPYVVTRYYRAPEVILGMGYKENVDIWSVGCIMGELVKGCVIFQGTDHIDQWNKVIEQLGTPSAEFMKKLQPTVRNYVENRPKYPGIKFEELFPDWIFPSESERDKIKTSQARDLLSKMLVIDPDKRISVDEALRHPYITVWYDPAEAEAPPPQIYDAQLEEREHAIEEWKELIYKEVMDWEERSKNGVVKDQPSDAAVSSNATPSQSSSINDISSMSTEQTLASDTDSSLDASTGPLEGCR
Test: Inhibitory concentration against c-Jun N-Terminal kinase 2
pIC50: −log10 of the molar value.
parameter.measured: pIC50

compound.structure | target.or.test.system | observed.measurement
N#C/C(=C1/Nc2ccccc2S1)c1ccnc(NCCc2cccnc2)n1.O=C(O)C(F)(F)F.O=C(O)C(F)(F)F | Mitogen-activated protein kinase 9 (Homo sapiens, UniProt P45984) | 6.66

* * *

Molecular target: Mitogen-activated protein kinase 8 (Homo sapiens)
Sequence (P45983 whole entry): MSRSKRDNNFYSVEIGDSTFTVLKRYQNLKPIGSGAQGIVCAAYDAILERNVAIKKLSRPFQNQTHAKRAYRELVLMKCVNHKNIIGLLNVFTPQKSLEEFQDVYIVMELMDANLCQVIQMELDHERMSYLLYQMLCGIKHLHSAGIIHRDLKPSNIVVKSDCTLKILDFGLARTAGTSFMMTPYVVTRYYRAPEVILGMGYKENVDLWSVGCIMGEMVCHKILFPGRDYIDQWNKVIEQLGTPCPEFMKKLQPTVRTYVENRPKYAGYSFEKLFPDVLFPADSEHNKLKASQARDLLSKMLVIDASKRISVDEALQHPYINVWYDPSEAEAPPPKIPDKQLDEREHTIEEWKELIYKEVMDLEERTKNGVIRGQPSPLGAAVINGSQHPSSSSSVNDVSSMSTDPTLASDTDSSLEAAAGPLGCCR
Experiment: Inhibition of c-Jun N-Terminal kinase 1

compound.structure | target.or.test.system | IC50
N#C/C(=C1/Nc2ccccc2S1)c1ccnc(NCCc2cccnc2)n1.O=C(O)C(F)(F)F.O=C(O)C(F)(F)F | Mitogen-activated protein kinase 8 (Homo sapiens) | 150 nM

* * *

Biological target: MAP kinase-activated protein kinase 2 (Homo sapiens, UniProt P49137)
Sequence (P49137 whole entry): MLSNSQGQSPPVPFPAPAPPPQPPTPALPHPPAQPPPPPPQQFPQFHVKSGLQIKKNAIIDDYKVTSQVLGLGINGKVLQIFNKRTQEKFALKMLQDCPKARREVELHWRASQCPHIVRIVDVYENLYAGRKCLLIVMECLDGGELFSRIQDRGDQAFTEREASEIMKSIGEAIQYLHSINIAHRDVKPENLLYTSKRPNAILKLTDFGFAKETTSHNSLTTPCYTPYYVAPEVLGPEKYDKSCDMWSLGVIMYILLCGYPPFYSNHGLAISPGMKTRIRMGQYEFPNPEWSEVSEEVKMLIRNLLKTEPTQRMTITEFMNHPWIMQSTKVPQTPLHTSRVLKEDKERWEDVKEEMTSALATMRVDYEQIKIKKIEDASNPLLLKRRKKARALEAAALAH
Assay: Inhibition of MAP kinase-activated protein kinase 2
pIC50: −log10 of the molar value.

compound.structure | pIC50
N#C/C(=C1/Nc2ccccc2S1)c1ccnc(NCCc2cccnc2)n1.O=C(O)C(F)(F)F.O=C(O)C(F)(F)F | < 5.00

* * *

Biological target: Dual specificity mitogen-activated protein kinase kinase 7 (Homo sapiens, UniProt O14733)
Sequence (O14733 whole entry): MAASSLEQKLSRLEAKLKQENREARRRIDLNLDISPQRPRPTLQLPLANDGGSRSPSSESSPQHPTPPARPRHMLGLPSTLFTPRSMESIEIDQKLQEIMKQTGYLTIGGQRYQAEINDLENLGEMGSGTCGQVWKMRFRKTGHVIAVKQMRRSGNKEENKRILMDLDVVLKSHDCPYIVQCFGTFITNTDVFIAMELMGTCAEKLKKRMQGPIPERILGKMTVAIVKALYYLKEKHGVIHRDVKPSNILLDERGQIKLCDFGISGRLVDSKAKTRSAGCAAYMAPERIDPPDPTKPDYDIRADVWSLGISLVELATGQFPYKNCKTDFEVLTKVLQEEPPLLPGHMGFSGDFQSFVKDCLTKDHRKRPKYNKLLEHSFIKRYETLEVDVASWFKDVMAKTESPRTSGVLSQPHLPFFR
Assay: Inhibition of mitogen activated protein kinase kinase 7 beta

compound.structure | IC50
N#C/C(=C1/Nc2ccccc2S1)c1ccnc(NCCc2cccnc2)n1.O=C(O)C(F)(F)F.O=C(O)C(F)(F)F | > 10 µM

* * *

Target: RAF proto-oncogene serine/threonine-protein kinase (Homo sapiens)
Sequence (P04049 whole entry): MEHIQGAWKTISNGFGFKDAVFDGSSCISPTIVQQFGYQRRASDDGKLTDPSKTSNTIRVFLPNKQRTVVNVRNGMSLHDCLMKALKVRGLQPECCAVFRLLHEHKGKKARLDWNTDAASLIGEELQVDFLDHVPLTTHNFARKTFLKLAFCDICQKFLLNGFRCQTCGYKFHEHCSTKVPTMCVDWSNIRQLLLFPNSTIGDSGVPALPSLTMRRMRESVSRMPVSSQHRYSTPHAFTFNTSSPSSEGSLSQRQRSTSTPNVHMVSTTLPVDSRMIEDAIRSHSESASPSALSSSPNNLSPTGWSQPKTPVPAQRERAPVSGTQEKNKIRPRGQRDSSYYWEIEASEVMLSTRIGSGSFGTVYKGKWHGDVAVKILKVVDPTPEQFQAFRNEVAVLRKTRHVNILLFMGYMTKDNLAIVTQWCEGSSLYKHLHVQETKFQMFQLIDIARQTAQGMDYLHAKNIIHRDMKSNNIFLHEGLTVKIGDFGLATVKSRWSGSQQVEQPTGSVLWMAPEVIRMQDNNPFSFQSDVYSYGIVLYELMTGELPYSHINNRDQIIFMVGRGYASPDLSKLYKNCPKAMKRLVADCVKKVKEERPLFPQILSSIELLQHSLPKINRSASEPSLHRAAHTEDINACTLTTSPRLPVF

compound.structure | result.unit | IC50
N#C/C(=C1/Nc2ccccc2S1)c1ccnc(NCCc2cccnc2)n1.O=C(O)C(F)(F)F.O=C(O)C(F)(F)F | µM | 1.2

* * *

Experiment: Oral bioavailability in rat
Type: ADME, organism-based
Settings: in vivo, read-out: Bioavailabiility

compound.structure | bioavailability / %
N#C/C(=C1/Nc2ccccc2S1)c1ccnc(NCCc2cccnc2)n1.O=C(O)C(F)(F)F.O=C(O)C(F)(F)F | 38

* * *

Target: 3-phosphoinositide-dependent protein kinase 1 (Homo sapiens)
Sequence (O15530 whole entry): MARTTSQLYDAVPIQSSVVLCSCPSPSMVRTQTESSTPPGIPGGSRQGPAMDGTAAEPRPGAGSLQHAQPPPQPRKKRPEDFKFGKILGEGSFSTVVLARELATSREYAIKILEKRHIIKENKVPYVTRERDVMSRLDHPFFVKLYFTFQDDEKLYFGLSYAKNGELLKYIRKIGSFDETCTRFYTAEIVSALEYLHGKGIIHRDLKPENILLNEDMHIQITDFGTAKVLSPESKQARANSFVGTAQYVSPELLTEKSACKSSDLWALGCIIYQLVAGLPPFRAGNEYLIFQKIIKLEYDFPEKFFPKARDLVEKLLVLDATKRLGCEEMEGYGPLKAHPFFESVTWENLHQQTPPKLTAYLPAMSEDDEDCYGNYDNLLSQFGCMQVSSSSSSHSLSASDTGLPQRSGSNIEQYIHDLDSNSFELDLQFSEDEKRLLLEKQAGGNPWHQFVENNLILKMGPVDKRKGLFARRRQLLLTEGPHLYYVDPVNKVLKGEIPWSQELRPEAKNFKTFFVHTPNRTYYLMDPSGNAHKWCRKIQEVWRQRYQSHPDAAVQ
parameter.measured: IC50

compound.structure | target.or.test.system | observed.measurement
N#C/C(=C1/Nc2ccccc2S1)c1ccnc(NCCc2cccnc2)n1.O=C(O)C(F)(F)F.O=C(O)C(F)(F)F | 3-phosphoinositide-dependent protein kinase 1 (Homo sapiens) | > 10 µM

* * *

Molecular target: Mitogen-activated protein kinase 10 (Rattus norvegicus, UniProt P49187)
Sequence (P49187 whole entry): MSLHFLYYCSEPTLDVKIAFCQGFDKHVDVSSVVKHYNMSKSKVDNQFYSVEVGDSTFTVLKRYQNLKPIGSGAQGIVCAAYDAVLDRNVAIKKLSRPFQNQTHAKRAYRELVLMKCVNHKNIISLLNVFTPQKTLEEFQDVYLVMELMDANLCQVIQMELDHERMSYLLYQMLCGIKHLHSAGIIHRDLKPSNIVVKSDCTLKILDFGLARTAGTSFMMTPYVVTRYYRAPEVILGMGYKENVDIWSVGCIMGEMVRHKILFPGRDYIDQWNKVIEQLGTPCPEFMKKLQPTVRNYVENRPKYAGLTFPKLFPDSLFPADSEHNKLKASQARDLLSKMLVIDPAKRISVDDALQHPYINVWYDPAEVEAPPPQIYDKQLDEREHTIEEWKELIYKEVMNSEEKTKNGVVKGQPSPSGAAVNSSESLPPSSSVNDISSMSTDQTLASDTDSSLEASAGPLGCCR
Assay: Inhibition of rat c-Jun N-terminal kinase 3
pIC50: −log10 of the molar value.
Cut-off 6 on pIC50, inclusive. At or above means fulfilled; below means not fulfilled.

compound.structure | label
COc1ccc(CCNc2nccc(/C(C#N)=C3\Nc4ccccc4S3)n2)cc1 | not fulfilled
N#C/C(=C1/Nc2ccccc2S1)c1ccnc(NCCc2ccc(O)cc2)n1 | not fulfilled
N#C/C(=C1/Nc2ccccc2S1)c1ccnc(NCCc2ccc(F)cc2)n1 | not fulfilled
N#C/C(=C1/Nc2ccccc2S1)c1ccnc(NCCc2ccc(S(N)(=O)=O)cc2)n1 | fulfilled
N#C/C(=C1/Nc2ccccc2S1)c1ccnc(Cl)n1 | fulfilled
N#C/C(=C1/Nc2ccccc2S1)c1ccncn1 | not fulfilled
N#C/C(=C1/Nc2ccccc2S1)c1ccnc(NN)n1 | fulfilled
Cc1cc(/C(C#N)=C2\Nc3ccccc3S2)nc(Cl)n1 | not fulfilled
N#C/C(=C1/Nc2ccccc2S1)c1ccnc(NCCn2ccc3ccccc32)n1 | fulfilled
CN(C)CCCNc1nccc(/C(C#N)=C2\Nc3ccccc3S2)n1 | not fulfilled
N#C/C(=C1/Nc2ccccc2S1)c1cccc(Cl)n1 | not fulfilled
N#C/C(=C1/Nc2ccccc2S1)c1ccnc(NCCc2cccc(F)c2)n1 | not fulfilled
N#C/C(=C1/Nc2ccccc2S1)c1ccnc(NCc2ccccc2)n1 | not fulfilled
CN1/C(=C(/C#N)c2ccnc(Cl)n2)Sc2ccccc21 | not fulfilled
N#CC(=C1Nc2ccccc2N1)c1nc(Cl)ncc1Br | not fulfilled
N#C/C(=C1/Nc2ccccc2S1)c1ccnc(NCc2nn[nH]n2)n1 | not fulfilled
N#C/C(=C1/Nc2ccccc2S1)c1ccnc(NCCc2ccccn2)n1 | fulfilled
N#C/C(=C1/Nc2ccccc2S1)c1ccnc(NCCN2CCCCC2)n1 | not fulfilled
N#C/C(=C1/Nc2ccccc2S1)c1ccnc(NCCO)n1 | fulfilled
CN(C)c1nccc(/C(C#N)=C2\Nc3ccccc3S2)n1 | not fulfilled

* * *

Biological target: Ribosomal protein S6 kinase (P70S6K) (Homo sapiens, UniProt P23443+Q9UBS0)
Sequence (Q9UBS0 whole entry): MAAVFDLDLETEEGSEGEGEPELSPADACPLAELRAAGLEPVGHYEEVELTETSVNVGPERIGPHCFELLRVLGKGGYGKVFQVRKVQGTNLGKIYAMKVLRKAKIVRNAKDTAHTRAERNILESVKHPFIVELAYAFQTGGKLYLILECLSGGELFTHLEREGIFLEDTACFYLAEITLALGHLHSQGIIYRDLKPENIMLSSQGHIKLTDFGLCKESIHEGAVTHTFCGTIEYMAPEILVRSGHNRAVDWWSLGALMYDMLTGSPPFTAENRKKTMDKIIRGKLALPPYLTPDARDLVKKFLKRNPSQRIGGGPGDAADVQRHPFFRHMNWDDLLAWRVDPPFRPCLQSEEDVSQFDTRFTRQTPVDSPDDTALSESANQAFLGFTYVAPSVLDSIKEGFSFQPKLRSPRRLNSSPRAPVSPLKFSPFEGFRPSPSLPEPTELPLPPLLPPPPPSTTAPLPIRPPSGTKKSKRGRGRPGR
Sequence (P23443 whole entry): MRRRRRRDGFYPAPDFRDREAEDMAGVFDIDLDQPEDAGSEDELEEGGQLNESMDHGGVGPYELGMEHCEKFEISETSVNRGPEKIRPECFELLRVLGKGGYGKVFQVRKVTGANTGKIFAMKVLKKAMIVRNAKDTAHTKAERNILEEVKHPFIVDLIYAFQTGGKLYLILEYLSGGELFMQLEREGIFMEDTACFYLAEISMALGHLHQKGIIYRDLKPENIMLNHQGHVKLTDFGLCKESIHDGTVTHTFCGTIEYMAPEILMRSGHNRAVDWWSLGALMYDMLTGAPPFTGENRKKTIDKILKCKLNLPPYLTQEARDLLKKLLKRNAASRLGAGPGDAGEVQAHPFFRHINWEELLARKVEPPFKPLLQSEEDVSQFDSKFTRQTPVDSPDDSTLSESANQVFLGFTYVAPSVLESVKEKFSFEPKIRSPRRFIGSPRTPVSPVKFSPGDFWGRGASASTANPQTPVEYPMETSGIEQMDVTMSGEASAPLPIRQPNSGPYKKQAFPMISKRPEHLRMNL
Test: Inhibition of p70S6K

compound.structure | IC50
N#C/C(=C1/Nc2ccccc2S1)c1ccnc(NCCc2cccnc2)n1.O=C(O)C(F)(F)F.O=C(O)C(F)(F)F | > 10 µM

* * *

Molecular target: Cyclin-dependent kinase 2/cyclin A (Homo sapiens)
Assay: Inhibition of CDK2/cyclin A
pIC50: −log10 of the molar value.
parameter.measured: pIC50

compound.structure | target.or.test.system | observed.measurement
N#C/C(=C1/Nc2ccccc2S1)c1ccnc(NCCc2cccnc2)n1.O=C(O)C(F)(F)F.O=C(O)C(F)(F)F | Cyclin-dependent kinase 2/cyclin A (Homo sapiens) | 5.85
